This collection of values is drawn from ChEMBL document CHEMBL1127889.

TARGET_OR_TEST_SYSTEM: Neprilysin (Rattus norvegicus)
Sequence (P07861 whole entry): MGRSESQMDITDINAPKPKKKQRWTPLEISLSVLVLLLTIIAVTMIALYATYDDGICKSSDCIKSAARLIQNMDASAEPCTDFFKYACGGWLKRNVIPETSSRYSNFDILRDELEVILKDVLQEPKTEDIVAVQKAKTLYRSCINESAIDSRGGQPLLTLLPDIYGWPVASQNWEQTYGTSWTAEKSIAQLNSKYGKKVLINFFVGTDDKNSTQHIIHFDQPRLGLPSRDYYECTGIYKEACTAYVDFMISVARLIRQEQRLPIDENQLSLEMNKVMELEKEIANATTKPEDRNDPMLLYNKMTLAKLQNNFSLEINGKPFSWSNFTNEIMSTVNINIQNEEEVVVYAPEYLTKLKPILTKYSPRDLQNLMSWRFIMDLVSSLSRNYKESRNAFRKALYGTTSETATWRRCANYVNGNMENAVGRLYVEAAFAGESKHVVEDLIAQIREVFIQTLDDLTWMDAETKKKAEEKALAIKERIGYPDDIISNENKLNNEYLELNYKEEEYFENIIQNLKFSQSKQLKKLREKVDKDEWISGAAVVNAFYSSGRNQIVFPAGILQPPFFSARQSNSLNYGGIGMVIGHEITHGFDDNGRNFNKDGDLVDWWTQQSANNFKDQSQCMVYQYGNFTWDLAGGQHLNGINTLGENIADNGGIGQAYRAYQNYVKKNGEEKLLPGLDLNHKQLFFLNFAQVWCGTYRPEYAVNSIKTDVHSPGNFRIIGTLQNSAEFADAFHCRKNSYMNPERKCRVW
MEASUREMENT_PROTOCOL: Inhibitory activity against neutral endopeptidase (NEP)prepared from microsomal fractions of rat small intestine
Below, each entry is listed alongside its reported IC50.
Quick reminder: number only, in nM, skip the unit.

Use these answered entries as a reference point.
COMPOUND	TARGET_OR_TEST_SYSTEM	ENDPOINT_UNIT	IC50
CC(C)C[C@H](NC(CCc1ccc(O)cc1)P(=O)(O)O)C(=O)N[C@@H](Cc1c[nH]c2ccccc12)C(=O)O (stereo not given in full)	Neprilysin (Rattus norvegicus)	nM	130
CC(C)C[C@H](NC(CCCc1ccccc1)P(=O)(O)O)C(=O)N[C@@H](Cc1c[nH]c2ccccc12)C(=O)O (stereo not given in full)	Neprilysin (Rattus norvegicus)	nM	1100
CC(C)C[C@H](NP(=O)(O)OC1O[C@@H](C)[C@H](O)[C@@H](O)[C@H]1O)C(=O)N[C@@H](Cc1c[nH]c2ccccc12)C(=O)O (single isomer, unassigned)	Neprilysin (Rattus norvegicus)	nM	4.2
CCCC(N[C@@H](CC(C)C)C(=O)N[C@@H](Cc1c[nH]c2ccccc12)C(=O)O)P(=O)(O)O (stereo not given in full)	Neprilysin (Rattus norvegicus)	nM	550

Let us move to another entry and its IC50.
IC50 for `CC(C)C[C@H](NCP(=O)(O)O)C(=O)N[C@@H](Cc1c[nH]c2ccccc12)C(=O)O` ?
24

###

TARGET_OR_TEST_SYSTEM: UniProtKB P42891
MEASUREMENT_PROTOCOL: Inhibition of Endothelin-converting enzyme (ECE) from microsomal fractions of bovine cultured endothelial cells
READOUT_NAME: pIC50
To interpret pIC50, take it as minus log10 of a concentration measured in moles per litre.

Use these answered entries as a reference point.
>>> print(df.to_string())
                                   compound  readout_name  value_measured
0  CC(C)C[C@H](NC(CCc1c[nH]c2ccccc12)P(=O)(O)O)C(=O)N[C@@H](Cc1c[nH]c2ccccc12)C(=O)O (stereo partly specified)         pIC50            5.72
1  CC(C)C[C@H](NC(CCc1ccc(O)cc1)P(=O)(O)O)C(=O)N[C@@H](Cc1c[nH]c2ccccc12)C(=O)O (stereo partly specified)         pIC50            5.52
2  CC(C)C[C@H](NC(CCc1cccc2ccccc12)P(=O)(O)O)C(=O)N[C@@H](Cc1c[nH]c2ccccc12)C(=O)O (stereo partly specified)         pIC50            6.59
3  CC(C)C[C@H](NC(CCCc1ccccc1)P(=O)(O)O)C(=O)N[C@@H](Cc1c[nH]c2ccccc12)C(=O)O (stereo partly specified)         pIC50            5.15
4  CC(C)C[C@H](NP(=O)(O)O)C(=O)N[C@@H](Cc1c[nH]c2ccccc12)C(=O)O         pIC50            6.02

Under UniProtKB P42891: pIC50 value of `CC(C)C[C@H](NP(=O)(O)O)C(=O)N[C@@H](Cc1cccc2ccccc12)C(=O)O` ?
5.13

Under UniProtKB P42891: pIC50 value of CCCC(N[C@@H](CC(C)C)C(=O)N[C@@H](Cc1c[nH]c2ccccc12)C(=O)O)P(=O)(O)O (stereo partly specified) ?
4.82

Under UniProtKB P42891: pIC50 value of `CC(C)C[C@H](NCP(=O)(O)O)C(=O)N[C@@H](Cc1c[nH]c2ccccc12)C(=O)O` ?
5.47

Under UniProtKB P42891: pIC50 value of CC(C)C[C@H](NC(CCc1ccccc1)P(=O)(O)O)C(=O)N[C@@H](Cc1c[nH]c2ccccc12)C(=O)O (stereo partly specified) ?
5.96

Under UniProtKB P42891: pIC50 value of `CC[C@@H](C)[C@H](NP(=O)(O)O)C(=O)N[C@@H](Cc1c[nH]c2ccccc12)C(=O)O` ?
5.55

Under UniProtKB P42891: pIC50 value of `CCCC[C@H](NP(=O)(O)O)C(=O)N[C@@H](Cc1c[nH]c2ccccc12)C(=O)O` ?
5.82

###

TARGET_OR_TEST_SYSTEM: Endothelin-converting enzyme 1 (Bos taurus) (UniProt P42891)
Sequence (P42891 whole entry): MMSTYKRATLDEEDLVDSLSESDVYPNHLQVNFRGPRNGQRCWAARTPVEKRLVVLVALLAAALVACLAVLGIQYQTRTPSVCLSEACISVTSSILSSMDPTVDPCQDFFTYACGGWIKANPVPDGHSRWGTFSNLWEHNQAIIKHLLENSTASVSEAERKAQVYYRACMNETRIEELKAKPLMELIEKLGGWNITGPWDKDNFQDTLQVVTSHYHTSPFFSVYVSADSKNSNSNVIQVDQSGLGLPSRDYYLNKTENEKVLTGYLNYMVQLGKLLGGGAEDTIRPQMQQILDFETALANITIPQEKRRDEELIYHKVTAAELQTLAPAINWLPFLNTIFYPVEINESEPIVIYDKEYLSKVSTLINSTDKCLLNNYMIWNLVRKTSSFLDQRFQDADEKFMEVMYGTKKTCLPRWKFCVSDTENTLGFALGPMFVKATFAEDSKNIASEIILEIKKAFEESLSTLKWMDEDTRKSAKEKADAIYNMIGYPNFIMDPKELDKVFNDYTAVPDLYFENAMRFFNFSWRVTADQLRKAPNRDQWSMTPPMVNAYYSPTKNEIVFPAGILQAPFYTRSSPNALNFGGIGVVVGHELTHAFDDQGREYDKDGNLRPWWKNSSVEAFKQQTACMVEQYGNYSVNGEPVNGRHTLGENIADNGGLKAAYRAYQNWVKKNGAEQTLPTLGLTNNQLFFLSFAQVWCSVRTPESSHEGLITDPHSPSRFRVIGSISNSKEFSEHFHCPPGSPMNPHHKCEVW
MEASUREMENT_PROTOCOL: Inhibitory activity against Endothelin-converting enzyme (ECE) prepared from the microsomal fractions of bovine cultured endothelial cells at a concentration of 100 uM
Assay type: cell-based
REPORTED_CONDITIONS: Endothelial cell
Below, each entry is listed alongside its reported inhibition.
Quick reminder: number only, in %, skip the unit.

inhibition for CC(C)C[C@H](NC(CCc1ccc(O)cc1)P(=O)(O)O)C(=O)N[C@@H](Cc1c[nH]c2ccccc12)C(=O)O (some centres undefined) ?
42

inhibition for `CC(C)[C@H](NP(=O)(O)O)C(=O)N[C@@H](CC(N)=O)C(=O)O` ?
14

inhibition for CC(C)C[C@H](NC(CCc1ccccc1)P(=O)(O)O)C(=O)N[C@@H](Cc1c[nH]c2ccccc12)C(=O)O (some centres undefined) ?
33

inhibition for CC(C)C[C@H](NC(CCCc1ccccc1)P(=O)(O)O)C(=O)N[C@@H](Cc1c[nH]c2ccccc12)C(=O)O (some centres undefined) ?
38

###

MEASUREMENT_PROTOCOL: Selectivity ratio against ECE/NEP
READOUT_NAME: Ratio
Answer using only a numeral; do not append any unit.

Ratio for `CC(C)C[C@H](NCP(=O)(O)O)C(=O)N[C@@H](Cc1c[nH]c2ccccc12)C(=O)O` ?
7.1

Ratio for CC(C)C[C@H](NC(CCCc1ccccc1)P(=O)(O)O)C(=O)N[C@@H](Cc1c[nH]c2ccccc12)C(=O)O (some centres not stated) ?
150

Ratio for CC(C)C[C@H](NC(CCc1cccc2ccccc12)P(=O)(O)O)C(=O)N[C@@H](Cc1c[nH]c2ccccc12)C(=O)O (some centres not stated) ?
540

Ratio for CC(C)C[C@H](NC(CCc1ccc(O)cc1)P(=O)(O)O)C(=O)N[C@@H](Cc1c[nH]c2ccccc12)C(=O)O (some centres not stated) ?
43

Ratio for CC(C)C[C@H](NC(CCc1ccccc1)P(=O)(O)O)C(=O)N[C@@H](Cc1c[nH]c2ccccc12)C(=O)O (some centres not stated) ?
120

Ratio for CCCC(N[C@@H](CC(C)C)C(=O)N[C@@H](Cc1c[nH]c2ccccc12)C(=O)O)P(=O)(O)O (some centres not stated) ?
37

Ratio for CC(C)C[C@H](NC(CCc1c[nH]c2ccccc12)P(=O)(O)O)C(=O)N[C@@H](Cc1c[nH]c2ccccc12)C(=O)O (some centres not stated) ?
290
